# SYSTEM_NAME: human mu opioid receptor (Homo sapiens, UniProt P35372)
# Construct: host or cells: CHO (MOR-CHO)
# Sequence (P35372 whole entry): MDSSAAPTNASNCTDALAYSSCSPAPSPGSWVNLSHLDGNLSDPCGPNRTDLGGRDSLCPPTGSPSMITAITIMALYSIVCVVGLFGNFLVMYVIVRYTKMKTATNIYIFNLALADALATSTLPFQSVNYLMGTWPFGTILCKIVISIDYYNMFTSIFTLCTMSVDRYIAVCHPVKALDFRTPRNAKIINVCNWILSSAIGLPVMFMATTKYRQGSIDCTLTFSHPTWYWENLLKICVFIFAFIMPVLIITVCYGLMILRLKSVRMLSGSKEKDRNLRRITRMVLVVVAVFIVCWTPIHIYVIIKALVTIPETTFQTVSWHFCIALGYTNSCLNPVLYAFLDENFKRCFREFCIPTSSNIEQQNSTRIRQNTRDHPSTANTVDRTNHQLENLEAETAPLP
# Format: cell-based
# TEST_CONTEXT: 500 μM terpene or 10 μM morphine, 5 min, Fig. S13A
TEST_READOUT: ERK stimulation in MOR-CHO cells

Please review the entries below; each comes with its answer.
COMPOUND	ERK stimulation in MOR-CHO cells
C/C1=C\CC/C(C)=C/CC(C)(C)/C=C/C1	produced ERK stimulation
C=CC(C)(O)CCC=C(C)C (centres unmarked)	no response
CC(C)=CCC/C(C)=C/CO	no response
C=C1CC/C=C(\C)CC[C@@H]2[C@@H]1CC2(C)C [β-Caryophyllene, reference compound]	produced ERK stimulation

Now, please, on to the next compound.
Field ERK stimulation in MOR-CHO cells (system: human mu opioid receptor (Homo sapiens, UniProt P35372)) for entry C=C1CCC2CC1C2(C)C (centres unmarked) = produced ERK stimulation

* * *

# Tested on: WT CHO cells
# TEST_DESCRIPTION: ERK phosphorylation (Western) in WT CHO cells
# Type: cell-based
# TEST_CONTEXT: 500 μM terpene or 10 μM WIN55,212-2, 5 min, Fig. 7B

MOLECULE	ERK phosphorylation in WT CHO cells
C/C1=C\CC/C(C)=C/CC(C)(C)/C=C/C1	activated ERK
C=C1CCC2CC1C2(C)C (stereo not drawn)	activated ERK
C=C1CC/C=C(\C)CC[C@@H]2[C@@H]1CC2(C)C [β-Caryophyllene, reference compound]	activated ERK

* * *

# SYSTEM_NAME: CB1 (Homo sapiens, UniProt P21554)
# Sequence (P21554 whole entry): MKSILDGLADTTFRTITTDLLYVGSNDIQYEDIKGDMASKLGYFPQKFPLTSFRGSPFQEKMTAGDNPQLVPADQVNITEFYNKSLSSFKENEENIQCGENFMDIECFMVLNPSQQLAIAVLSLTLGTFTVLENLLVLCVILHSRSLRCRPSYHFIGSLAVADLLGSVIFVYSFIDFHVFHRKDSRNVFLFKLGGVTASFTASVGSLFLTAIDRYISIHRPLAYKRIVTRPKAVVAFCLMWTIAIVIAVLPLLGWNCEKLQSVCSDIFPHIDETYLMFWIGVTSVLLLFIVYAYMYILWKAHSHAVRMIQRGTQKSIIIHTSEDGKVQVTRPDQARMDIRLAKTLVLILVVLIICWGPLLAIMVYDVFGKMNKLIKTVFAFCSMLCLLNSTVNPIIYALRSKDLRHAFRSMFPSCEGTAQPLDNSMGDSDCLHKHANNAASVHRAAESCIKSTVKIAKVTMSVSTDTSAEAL
TEST_READOUT: IC50 (µM)
Lab book: enter the figure in µM, no units written.

IC50 reported for this compound "CC(C)=CCC/C(C)=C/CO" : 44.2

* * *

# SYSTEM_NAME: CB1 (Homo sapiens)
# TEST_DESCRIPTION: biochemical
# Format: binding
# TEST_CONTEXT: CB1-CHO membranes, Fig. 8A
TEST_READOUT: competition for the orthosteric binding site against CP55,940

COMPOUND	OBSERVED_VALUE
C=CC(C)(O)CCC=C(C)C (centres unmarked)	little to no competition
C=C1CCC2CC1C2(C)C (centres unmarked)	little to no competition
